IC90 H9 reference
system: H9 (acute lymphoblastic leukemia, ALL); test: MTT growth inhibition of leukemia cells, 72 h; format: cell-based, human; details: MTT
experimentalReadout: IC90 H9 (µg/mL)

[[record]]
compound = "COC(=O)C[C@](O)(CCCC(C)(C)OC(=O)C1CCCCC1)C(=O)O[C@@H]1C(OC)=C[C@]23CCCN2CCc2cc4c(cc2[C@H]13)OCO4"
valuemeasured = 0.04

[[record]]
compound = "COC(=O)C[C@@](CCCC(C)(C)OC(=O)/C=C/c1ccco1)(OC(=O)/C=C/c1ccco1)C(=O)O[C@@H]1C(OC)=C[C@]23CCCN2CCc2cc4c(cc2[C@H]13)OCO4"
valuemeasured = 0.4

[[record]]
compound = "COC(=O)C[C@@](CCCC(C)(C)OC(=O)c1scnc1C)(OC(=O)c1scnc1C)C(=O)O[C@@H]1C(OC)=C[C@]23CCCN2CCc2cc4c(cc2[C@H]13)OCO4"
valuemeasured = 1.24

[[record]]
compound = "COC(=O)C[C@@](CCCC(C)(C)OC(=O)c1ccccc1)(OC(=O)c1ccccc1)C(=O)O[C@@H]1C(OC)=C[C@]23CCCN2CCc2cc4c(cc2[C@H]13)OCO4"
valuemeasured = 3.9

[[record]]
compound = "COC(=O)C[C@](O)(CCCC(C)(C)OC(=O)c1cnoc1C)C(=O)O[C@@H]1C(OC)=C[C@]23CCCN2CCc2cc4c(cc2[C@H]13)OCO4"
valuemeasured = 0.25


* * *

test system: RKO (human colon adenocarcinoma cell); experiment: MTT growth inhibition of human solid tumor cells, 72 h; type: cell-based; conditions: MTT
A collection of compounds and their measured IC50 RKO
experimentalReadout: IC50 RKO

[[record]]
compound = "COC(=O)C[C@](O)(CCCC(C)(C)OC(=O)C1CCCCC1)C(=O)O[C@@H]1C(OC)=C[C@]23CCCN2CCc2cc4c(cc2[C@H]13)OCO4"
experimentalreadout = "IC50 RKO"
valuemeasured = "0.008 µg/mL"

[[record]]
compound = "COC(=O)C[C@@](CCCC(C)(C)OC(=O)c1ccccc1)(OC(=O)c1ccccc1)C(=O)O[C@@H]1C(OC)=C[C@]23CCCN2CCc2cc4c(cc2[C@H]13)OCO4"
experimentalreadout = "IC50 RKO"
valuemeasured = "1.4 µg/mL"

[[record]]
compound = "COC(=O)C[C@@](CCCC(C)(C)OC(=O)c1scnc1C)(OC(=O)c1scnc1C)C(=O)O[C@@H]1C(OC)=C[C@]23CCCN2CCc2cc4c(cc2[C@H]13)OCO4"
experimentalreadout = "IC50 RKO"
valuemeasured = "0.22 µg/mL"

[[record]]
compound = "COC(=O)C[C@@](CCCC(C)(C)OC(=O)/C=C/c1ccco1)(OC(=O)/C=C/c1ccco1)C(=O)O[C@@H]1C(OC)=C[C@]23CCCN2CCc2cc4c(cc2[C@H]13)OCO4"
experimentalreadout = "IC50 RKO"
valuemeasured = "0.044 µg/mL"

[[record]]
compound = "COC(=O)C[C@](O)(CCCC(C)(C)OC(=O)c1cnoc1C)C(=O)O[C@@H]1C(OC)=C[C@]23CCCN2CCc2cc4c(cc2[C@H]13)OCO4"
experimentalreadout = "IC50 RKO"
valuemeasured = "0.039 µg/mL"


* * *

# IC50 annotations
test system: K562/adr (drug-resistant, chronic myeloid leukemia, CML); test: MTT growth inhibition of leukemia cells, 72 h; type: cell-based, human; details: Homo sapiens, K562/Adr, MTT
experimentalReadout: IC50 (µg/mL)

[[record]]
compound = "COC(=O)C[C@](O)(CCCC(C)(C)OC(=O)c1scnc1C)C(=O)O[C@@H]1C(OC)=C[C@]23CCCN2CCc2cc4c(cc2[C@H]13)OCO4"
testedon = "K562/adr (drug-resistant, chronic myeloid leukemia, CML)"
experimentalreadout = "IC50"
unitslabel = "µg/mL"
valuemeasured = 0.01

[[record]]
compound = "COC(=O)C[C@](O)(CCCC(C)(C)OC(C)=O)C(=O)O[C@@H]1C(OC)=C[C@]23CCCN2CCc2cc4c(cc2[C@H]13)OCO4"
testedon = "K562/adr (drug-resistant, chronic myeloid leukemia, CML)"
experimentalreadout = "IC50"
unitslabel = "µg/mL"
valuemeasured = 0.015

[[record]]
compound = "COC(=O)C[C@](O)(CCCC(C)(C)OC(=O)C1CC1)C(=O)O[C@@H]1C(OC)=C[C@]23CCCN2CCc2cc4c(cc2[C@H]13)OCO4"
testedon = "K562/adr (drug-resistant, chronic myeloid leukemia, CML)"
experimentalreadout = "IC50"
unitslabel = "µg/mL"
valuemeasured = 0.06

[[record]]
compound = "COC(=O)C[C@](O)(CCCC(C)(C)O)C(=O)O[C@@H]1C(OC)=C[C@]23CCCN2CCc2cc4c(cc2[C@H]13)OCO4 [HHT, reference compound]"
testedon = "K562/adr (drug-resistant, chronic myeloid leukemia, CML)"
experimentalreadout = "IC50"
unitslabel = "µg/mL"
valuemeasured = 0.035

[[record]]
compound = "COC(=O)C[C@@](CCCC(C)(C)OC(C)=O)(OC(C)=O)C(=O)O[C@@H]1C(OC)=C[C@]23CCCN2CCc2cc4c(cc2[C@H]13)OCO4"
testedon = "K562/adr (drug-resistant, chronic myeloid leukemia, CML)"
experimentalreadout = "IC50"
unitslabel = "µg/mL"
valuemeasured = 0.062


* * *

test system: Kasumi-1 (acute myeloid leukemia M2 type, AML-M2); experiment: MTT growth inhibition of leukemia cells, 72 h; format: cell-based, human; details: Homo sapiens, Kasumi 1, MTT
experimentalReadout: IC50 (ng/mL)

[[record]]
compound = "COC(=O)C[C@](O)(CCCC(C)(C)OC(C)=O)C(=O)O[C@@H]1C(OC)=C[C@]23CCCN2CCc2cc4c(cc2[C@H]13)OCO4"
valuemeasured = 2

[[record]]
compound = "COC(=O)C[C@](O)(CCCC(C)(C)O)C(=O)O[C@@H]1C(OC)=C[C@]23CCCN2CCc2cc4c(cc2[C@H]13)OCO4 [HHT, reference compound]"
valuemeasured = 5

[[record]]
compound = "COC(=O)C[C@](O)(CCCC(C)(C)OC(=O)C1CCCC1)C(=O)O[C@@H]1C(OC)=C[C@]23CCCN2CCc2cc4c(cc2[C@H]13)OCO4"
valuemeasured = 4


* * *

system: Huh7 (human liver cancer cell); assay: MTT growth inhibition of human solid tumor cells, 72 h; assay type: cell-based; details: Homo sapiens, Huh-7
Recorded IC50 by entry
experimentalReadout: IC50 (ng/mL)

[[record]]
molecule = "COC(=O)C[C@](O)(CCCC(C)(C)O)C(=O)O[C@@H]1C(OC)=C[C@]23CCCN2CCc2cc4c(cc2[C@H]13)OCO4 [HHT, reference compound]"
valuemeasured = 4

[[record]]
molecule = "COC(=O)C[C@](O)(CCCC(C)(C)OC(=O)Cc1ccccc1)C(=O)O[C@@H]1C(OC)=C[C@]23CCCN2CCc2cc4c(cc2[C@H]13)OCO4"
valuemeasured = 3

[[record]]
molecule = "COC(=O)C[C@](O)(CCCC(C)(C)OC(=O)C1CCCC1)C(=O)O[C@@H]1C(OC)=C[C@]23CCCN2CCc2cc4c(cc2[C@H]13)OCO4"
valuemeasured = 16


* * *

Recorded IC50 by entry
system: CNE (nasopharyngeal carcinoma cell); assay: MTT growth inhibition of human solid tumor cells, 72 h; assay type: cell-based; details: Homo sapiens, MTT
experimentalReadout: IC50 (µg/mL)

[[record]]
compound = "COC(=O)C[C@](O)(CCCC(C)(C)OC(C)=O)C(=O)O[C@@H]1C(OC)=C[C@]23CCCN2CCc2cc4c(cc2[C@H]13)OCO4"
testedon = "CNE (nasopharyngeal carcinoma cell)"
valuemeasured = 0.024

[[record]]
compound = "COC(=O)C[C@](O)(CCCC(C)(C)OC(=O)C1CC1)C(=O)O[C@@H]1C(OC)=C[C@]23CCCN2CCc2cc4c(cc2[C@H]13)OCO4"
testedon = "CNE (nasopharyngeal carcinoma cell)"
valuemeasured = 0.028

[[record]]
compound = "COC(=O)C[C@](O)(CCCC(C)(C)OC(=O)c1scnc1C)C(=O)O[C@@H]1C(OC)=C[C@]23CCCN2CCc2cc4c(cc2[C@H]13)OCO4"
testedon = "CNE (nasopharyngeal carcinoma cell)"
valuemeasured = 0.0037

[[record]]
compound = "COC(=O)C[C@](O)(CCCC(C)(C)OC(=O)c1ccco1)C(=O)O[C@@H]1C(OC)=C[C@]23CCCN2CCc2cc4c(cc2[C@H]13)OCO4"
testedon = "CNE (nasopharyngeal carcinoma cell)"
valuemeasured = 0.031

[[record]]
compound = "COC(=O)C[C@](O)(CCCC(C)(C)OC(=O)c1cccnc1Cl)C(=O)O[C@@H]1C(OC)=C[C@]23CCCN2CCc2cc4c(cc2[C@H]13)OCO4"
testedon = "CNE (nasopharyngeal carcinoma cell)"
valuemeasured = 0.03

[[record]]
compound = "COC(=O)C[C@](O)(CCCC(C)(C)O)C(=O)O[C@@H]1C(OC)=C[C@]23CCCN2CCc2cc4c(cc2[C@H]13)OCO4 [HHT, reference compound]"
testedon = "CNE (nasopharyngeal carcinoma cell)"
valuemeasured = 0.038

[[record]]
compound = "COC(=O)C[C@@](CCCC(C)(C)OC(C)=O)(OC(C)=O)C(=O)O[C@@H]1C(OC)=C[C@]23CCCN2CCc2cc4c(cc2[C@H]13)OCO4"
testedon = "CNE (nasopharyngeal carcinoma cell)"
valuemeasured = 0.062

[[record]]
compound = "COC(=O)C[C@@](CCCC(C)(C)OC(=O)c1cccs1)(OC(=O)c1cccs1)C(=O)O[C@@H]1C(OC)=C[C@]23CCCN2CCc2cc4c(cc2[C@H]13)OCO4"
testedon = "CNE (nasopharyngeal carcinoma cell)"
valuemeasured = 0.35

[[record]]
compound = "COC(=O)C[C@](O)(CCCC(C)(C)OC(=O)C1CCCC1)C(=O)O[C@@H]1C(OC)=C[C@]23CCCN2CCc2cc4c(cc2[C@H]13)OCO4"
testedon = "CNE (nasopharyngeal carcinoma cell)"
valuemeasured = 0.012

[[record]]
compound = "COC(=O)C[C@](O)(CCCC(C)(C)OC(=O)Cc1ccccc1)C(=O)O[C@@H]1C(OC)=C[C@]23CCCN2CCc2cc4c(cc2[C@H]13)OCO4"
testedon = "CNE (nasopharyngeal carcinoma cell)"
valuemeasured = 0.0014

